Assay Target: CYP2D6 (Homo sapiens, UniProt P10635)
Construct: purchased Corning Gentest
Sequence (P10635 whole entry): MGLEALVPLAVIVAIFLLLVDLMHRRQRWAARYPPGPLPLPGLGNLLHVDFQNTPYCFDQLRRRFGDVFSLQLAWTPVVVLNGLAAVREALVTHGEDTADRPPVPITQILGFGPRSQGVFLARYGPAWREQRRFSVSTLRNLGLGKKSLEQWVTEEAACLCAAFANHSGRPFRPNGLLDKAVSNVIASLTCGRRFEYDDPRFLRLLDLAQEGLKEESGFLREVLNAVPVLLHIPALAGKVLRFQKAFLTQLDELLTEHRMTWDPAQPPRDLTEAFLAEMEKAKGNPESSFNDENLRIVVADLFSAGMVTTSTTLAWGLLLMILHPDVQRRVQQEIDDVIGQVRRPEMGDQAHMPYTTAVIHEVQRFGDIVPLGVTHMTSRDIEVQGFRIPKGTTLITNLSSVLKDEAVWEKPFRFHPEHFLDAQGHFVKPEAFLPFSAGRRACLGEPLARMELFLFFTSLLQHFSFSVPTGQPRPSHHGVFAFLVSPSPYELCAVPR
Test Name: Metabolic stability in Human CYP2D6 Supersomes
Type: in vitro ADME
Particulars: human, recombinant human CYP2D6 Supersomes, pH 7.4, Table 4b; Human CYP2D6 Supersomes; read-out: t1/2 (minutes) Experiment 1
Readout Label: half-life at 0.25 μM (min)
Just the number in min, nothing appended.

If you can, please state the reported half-life at 0.25 μM value of CCCCCCCC(=O)N[C@H](CN1CCCC1)[C@H](O)c1ccc2c(c1)OCCO2 [Eliglustat (D0), reference compound] .
9.7

###

Assay Target: CYP2D6 (Homo sapiens)
Construct: purchased Corning Gentest
Test Name: Metabolic stability in Human CYP2D6 Supersomes
Format: in vitro ADME
Particulars: human, recombinant human CYP2D6 Supersomes, pH 7.4, Table 4b; average of Experiments 1 and 2; read-out: t1/2 (minutes) Ave ± SD
Readout Label: half-life at 0.25 μM (min)
Just the number in min, nothing appended.

// lookup half-life at 0.25 μM | system=CYP2D6 (Homo sapiens) | key= CCCCCCCC(=O)N[C@H](CN1CCCC1)[C@H](O)c1ccc2c(c1)OCCO2 [Eliglustat (D0), reference compound]
8
